FYI, the data here is from PubChem BioAssay (NCI).

Test Description: NCI Yeast Anticancer Drug Screen. Data for the rad18 strain (AID 177)
Condition: S. cerevisiae rad18 mutant growth inhibition; at 3.7 µM; active compounds read high
Procedure: Growth inhibition of yeast strains with defined genetic alterations is measured as a screen for potential anti-cancer activity. Selected strains with alterations in DNA damage repair or cell cycle control were exposed to compounds and growth inhibition was measured relative to vehicle treated controls. The strain used in this assay is rad18
About 79,000 compounds went through this panel and 15% of them were active in at least one assay; those are over-represented in the sample as a whole.
Measured growth inhibition of individual entries
State the answer as a number, implicitly in %.

The examples below pair each entry with its known result.
| Compound | Experimental Endpoint | Value |
| --- | --- | --- |
| Nc1ccc2cc(Br)c3ccccc3c2c1 | growth inhibition | -2 |
| COC1=C(N=[N+]=[N-])C(=O)c2ncccc2C1=O | growth inhibition | 89 |

Query :: Fill blank: measured growth inhibition of the compound CCCCCC(=O)C(C)(c1nc2n(c1O)/C(=N/C(=O)Nc1ccc(Cl)cc1)N=N2)c1nc2n(c1O)/C(=N/C(=O)Nc1ccc(Cl)cc1)N=N2 is ____.
Result :: 7

Query :: Fill blank: measured growth inhibition of the compound OC1C#CCSCC#C/C=C\1 (stereo unspecified) is ____.
Result :: -21

Query :: Fill blank: measured growth inhibition of the compound CN(C)c1ccc(/C=C/c2ccnc3ccc4ccccc4c23)cc1 is ____.
Result :: 20

Query :: Fill blank: measured growth inhibition of the compound O=C1c2ccccc2C2CCC1c1ccccc12 (stereo unspecified) is ____.
Result :: -30
